Just for reference, patent US12723100 is where these values come from.

Molecular target: T1, full-length human Nectin-4 on cells (human, UniProt Q96NY8 32-510)
T1 construct: the cell is named under assay; also called CHO-Nectin-4 cells; Nectin-4-CHO
T1 sequence: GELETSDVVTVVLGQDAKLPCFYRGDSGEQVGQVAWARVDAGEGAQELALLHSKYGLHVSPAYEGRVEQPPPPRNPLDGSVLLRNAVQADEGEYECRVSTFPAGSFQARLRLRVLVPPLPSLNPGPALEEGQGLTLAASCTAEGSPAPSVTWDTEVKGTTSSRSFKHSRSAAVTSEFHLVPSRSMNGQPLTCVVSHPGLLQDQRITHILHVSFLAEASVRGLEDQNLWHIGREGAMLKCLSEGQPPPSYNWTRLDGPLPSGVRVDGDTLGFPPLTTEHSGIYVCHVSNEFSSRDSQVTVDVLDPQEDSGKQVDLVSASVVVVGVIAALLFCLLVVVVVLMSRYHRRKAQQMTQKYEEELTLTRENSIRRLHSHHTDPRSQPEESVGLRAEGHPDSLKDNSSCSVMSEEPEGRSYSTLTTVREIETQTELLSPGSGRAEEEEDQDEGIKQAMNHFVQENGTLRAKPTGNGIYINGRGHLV
Experiment: flow cytometry, SKBR3 cells (endogenous Nectin-4)
resultType: EC50 (nM)
The answer is to be given in nM; state only the numeric part.

Assign EC50 to the following record: N4_mAb 6 (antibody, human IgG1, V domains shown, Tested as chimera (murine variable regions, human IgG1/kappa constants); not shown: human IgG1 constant region (Uniprot P01857); human Kappa light chain constant region (UniProt P01834)) VH: QVQLQQSGPELVKPGASVRISCKASGYTFTTYYIHWVKQRPGQGLEWIGWIYPGNVNTKYTENFKDKATLTADKSSSTAYMQLSSLTSEDSAVYFCARGLYYFDFWGQGTTLTVSS VL: SIVMTQTPKFLLVSAGDRVTITCKASQSVNNDVAWYQQKPGQSPKLLIYYASNRDTGVPDRFTGSGFGTDFTFTISSVQAEDLAVYFCQQDYSSPYTFGGGTKLEIK
0.04

Assign EC50 to the following record: N4_mAb 7 (antibody, human IgG1, V domains shown, Tested as chimera (murine variable regions, human IgG1/kappa constants); not shown: human IgG1 constant region (Uniprot P01857); human Kappa light chain constant region (UniProt P01834)) VH: QVQLQQSGPELVKPGASVKMSCKASGYTFTTYYIHWVKQRPGQGLEWIGWIYPGNAGIKSNEKFKGKTTLTADKSSSTAYMLLSSLTSEDSAIYFCARGVYFFDYWGQGTTLTVSS VL: SIVMTQTPKFLLVSAGDRVTITCKASQSVNNDVSWFQQKPGQSPKLLIYYASNRYTGVPDRFSGSGYGTDFTFTITTVQAEDLAVYFCQQDYSSPYTFGGGTKLEIK
0.05
